- system: T1, LGP2 RD P606K (human, UniProt Q96C10 537-678, P606K)
- T1 sequence: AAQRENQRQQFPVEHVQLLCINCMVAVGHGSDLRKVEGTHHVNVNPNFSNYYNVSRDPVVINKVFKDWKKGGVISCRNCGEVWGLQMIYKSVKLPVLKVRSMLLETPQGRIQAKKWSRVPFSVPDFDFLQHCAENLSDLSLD
- testSummary: fluorescence anisotropy
observedProperty: Kd (nM)

{"columns": ["binder", "observedProperty", "testValue"],
 "data": [
  ["25 bp dsRNA (dsRNA) RNA 1: GCUUGUCGGGAGCGCCACCCUCUGC RNA 2: GCAGAGGGUGGCGCUCCCGACAAGC", "Kd", 230]
]}

Where do the numbers come from? From paper PMC2665237.
